Would you mind telling me the reported EC50 of each entry?
biological target: mouse TGR5 receptor (Mus musculus); construct: expressed in transfected cells; host or cells: HEK293-EBNA (293 c18, ATCC CRL10852), Hygromycin B selection; experiment: Mouse TGR5 cAMP production assay (HTRF, Cisbio cAMP HiRange); assay type: cell-based; details: HEK293-EBNA cells overexpressing mouse TGR5, HTRF cAMP HiRange; coded A-D
Sequence (Q80SS6 whole entry): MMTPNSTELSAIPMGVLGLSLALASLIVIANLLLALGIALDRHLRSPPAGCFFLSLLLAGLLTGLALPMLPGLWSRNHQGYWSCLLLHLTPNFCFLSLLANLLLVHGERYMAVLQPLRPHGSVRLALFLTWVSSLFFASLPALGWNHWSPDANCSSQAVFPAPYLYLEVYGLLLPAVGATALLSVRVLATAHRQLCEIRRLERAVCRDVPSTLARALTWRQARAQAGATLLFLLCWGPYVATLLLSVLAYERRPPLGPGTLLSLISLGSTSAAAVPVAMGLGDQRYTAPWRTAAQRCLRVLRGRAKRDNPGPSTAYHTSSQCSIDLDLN

Assay mouse TGR5 receptor (Mus musculus), sample CCc1cnccc1-c1cccc([C@H](CCCC#N)NS(=O)(=O)c2ccccc2C(F)(F)F)c1 [Compound 6AC] , EC50 read: < 100 nM

Measured EC50 (mouse TGR5 receptor (Mus musculus)), entry Cc1cnccc1-c1cccc(C2CN(C(=O)CCC(=O)O)CCN2S(=O)(=O)c2ccccc2C)c1 (stereo not shown) [Compound 46AI] : < 100 nM

Record Cc1cnccc1-c1cccc([C@H](C)N(CCCC(=O)NCCS(=O)(=O)O)S(=O)(=O)c2ccccc2C(F)(F)F)c1 ; system mouse TGR5 receptor (Mus musculus); EC50 = 100 to 999 nM

Form field EC50 for item Cc1cnccc1-c1cccc([C@H](C)N(CCCCC(=O)O)S(=O)(=O)c2cccc(Cl)c2C)c1 [Compound 16AF] on mouse TGR5 receptor (Mus musculus): 100 to 999 nM

Entry CCc1cnccc1-c1cccc([C@H](C)N(CCCC(=O)NCCS(=O)(=O)O)S(=O)(=O)c2cccc(Cl)c2C)c1 [Compound 21AQ] under mouse TGR5 receptor (Mus musculus) had EC50 of < 100 nM

EC50 for mouse TGR5 receptor (Mus musculus) with input Cc1cnccc1-c1cccc([C@@H](C)NS(=O)(=O)c2ccccc2C(F)(F)F)c1 [Compound 5AT] equals 100 to 999 nM

Per the reported mouse TGR5 receptor (Mus musculus) data, Cc1cnccc1-c1cccc(C(C)(C)N(CCCC(=O)NCCS(=O)(=O)O)S(=O)(=O)c2ccccc2C(F)(F)F)c1 [Compound 20AA] has EC50 of < 100 nM

The recorded EC50 with mouse TGR5 receptor (Mus musculus) for Cc1cnccc1-c1cccc(C2CN(C(=O)CCC(=O)O)CCN2S(=O)(=O)c2ccc(F)cc2C(F)(F)F)c1 (stereo not shown) [Compound 46AL] was 100 to 999 nM

Log: mouse TGR5 receptor (Mus musculus), compound Cc1cnccc1-c1cccc(C(C)(C)N(CCCNS(=O)(=O)CCNC(=O)NCCCS(=O)(=O)O)S(=O)(=O)c2cccc(Cl)c2C)c1 [Compound 28AE] , EC50 = 100 to 999 nM

GET /values?item= Cc1cnccc1-c1cccc([C@H](C)N(CCCC(=O)NCCNC(=O)[C@@H](N)CS(=O)(=O)O)S(=O)(=O)c2ccccc2C(F)(F)F)c1 [Compound 31AF] &system= mouse TGR5 receptor (Mus musculus) returns EC50: 100 to 999 nM

Observed EC50 on mouse TGR5 receptor (Mus musculus), entry Cc1cnccc1-c1cccc(C(C)(C)N(CCCC(=O)NCCNC(=N)N)S(=O)(=O)c2cccc(Cl)c2C)c1 [Compound 27AB] , equals 100 to 999 nM

Known value: mouse TGR5 receptor (Mus musculus) EC50 of the compound Cc1cnccc1-c1cccc(C(C)(C)N(CCCNS(=O)(=O)CCN)S(=O)(=O)c2cccc(Cl)c2C)c1 [Compound 26] equals 100 to 999 nM

EC50 on mouse TGR5 receptor (Mus musculus) for Cc1cnccc1-c1cccc(C(C)(C)N(CCCC(=O)NCC[N+](C)(C)C)S(=O)(=O)c2cccc(Cl)c2C)c1 [Compound 27AD] is 100 to 999 nM
